Taken from the RNAGym collection of RNA variant scans (doi:10.1093/nar/gkz1192).

B1: CPEB3 Ribozyme (parent)
chain: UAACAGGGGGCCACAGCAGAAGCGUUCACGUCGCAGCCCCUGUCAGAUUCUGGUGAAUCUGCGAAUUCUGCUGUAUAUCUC

Variants of: B1
Test: self-cleavage, relative activity (ratio to wild type); higher = more cleavage; in vitro, sequencing
Task for the reader: assign each of the following variants its reported self-cleavage.
Numbers only.

A56U C71U; 0.46

Give measured self-cleavage for every item shown.
1. G42U U80C
2. C12U U72C
3. U1C G63A
4. A2U U60A
5. C29U U31A
6. U1A A35G
7. G7U A56G

[0.51, 1.24, 0.84, 0.56, 0.2, 1.25, 0.23]
